- experimental_system: Tryptophan 2,3-dioxygenase (Homo sapiens, UniProt P48775)
- Sequence (P48775 whole entry): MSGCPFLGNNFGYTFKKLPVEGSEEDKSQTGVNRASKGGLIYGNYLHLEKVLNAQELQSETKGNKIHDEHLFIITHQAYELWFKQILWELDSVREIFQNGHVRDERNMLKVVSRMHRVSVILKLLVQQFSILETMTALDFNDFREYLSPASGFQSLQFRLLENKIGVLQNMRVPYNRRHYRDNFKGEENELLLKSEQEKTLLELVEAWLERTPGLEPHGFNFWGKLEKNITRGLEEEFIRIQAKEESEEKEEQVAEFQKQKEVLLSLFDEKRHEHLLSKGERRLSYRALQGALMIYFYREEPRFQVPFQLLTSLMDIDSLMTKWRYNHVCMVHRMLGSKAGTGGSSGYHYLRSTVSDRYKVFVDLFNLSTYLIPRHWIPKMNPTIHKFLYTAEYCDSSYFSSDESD
- assay_notes: Inhibition of recombinant human TDO assessed as reduction in N-formylkynurenine formation using L-tryptophan as substrate and measured after 15 mins
reported_endpoint: IC50 (nM)

Cc1coc2c1C(=O)C(=O)c1c-2ccc2c1CCC(=O)C2(C)C	940
Cc1coc2c1C(=O)C(=O)c1c-2ccc2c1C(=O)C(O)=CC2(C)C	1010
Cc1coc2c1C(=O)C(=O)c1c-2ccc2c1C(Br)CCC2(C)C (stereo unspecified)	710

I: CC1(C)C(=O)CCc2c1ccc1c2C(=O)C(=O)c2c(CO)coc2-1
II: CC(=O)O[C@H]1CCc2c(ccc3c2C(=O)C(=O)c2c(C)coc2-3)C1(C)C
III: CCN(CC)C(=O)c1coc2c1C(=O)C(=O)c1c-2ccc2c1C=CC(=O)C2(C)C
Query :: Order the entries by their reported IC50, beginning at the minimum. Quick reminder: the answer is the labels in the order asked.
Result :: I, II, III
(I: 200 nM, II: 370 nM, III: 9540 nM)

1: Cc1coc2c1C(=O)C(=O)c1c-2ccc2c1CC[C@H](O)C2(C)C
2: Cc1coc2c1C(=O)C(=O)c1c-2ccc2c1C=CC(=O)C2(C)C
3: CC(=O)OCc1coc2c1C(=O)C(=O)c1c-2ccc2c1C=CC(=O)C2(C)C
Query :: Reorder: IC50, max to min. Quick reminder: the answer is the labels in the order asked.
Result :: 1, 2, 3
(1: 2700 nM, 2: 960 nM, 3: 160 nM)
